Tested on: HepG2 cells
Assay: HepG2 cytotoxicity assay
Conditions: HepG2 cytotoxicity unified across screens; >25 set to 25.00
Decide by Unified cytotox: equal to or exceeding 7 µM means fulfilled, less means not fulfilled.

Solved entries:
[[record]]
compound = "Nc1cc(/C=C/c2ccc([N+](=O)[O-])s2)nc2ccccc12"
discrete_label = "fulfilled"

[[record]]
compound = "CCN(CC)CCN(Cc1ccc(-c2ccc(C(F)(F)F)cc2)cc1)C(=O)c1ccc(-c2ccc(NC(=O)OC)cc2C)cc1"
discrete_label = "not fulfilled"

[[record]]
compound = "CC(CCCC(=O)Nc1ccc(CC(C)NCCc2cccc(Cl)c2)cc1)NCCc1cccc(Cl)c1 (centres unmarked)"
discrete_label = "not fulfilled"

[[record]]
compound = "Cl.Ic1cc(CNC2CCCCC2)ccc1OCc1cccc(COc2ccc(CNC3CCCCC3)cc2I)c1"
discrete_label = "fulfilled"

[[record]]
compound = "CN1CCN(CCCN(Cc2cccc(-c3cccc(CNC4CCCC4)c3)c2)C(=O)CCC2CCCC2)CC1.O=C(O)C(F)(F)F"
discrete_label = "fulfilled"

[[record]]
compound = "CCn1ncc2c(NC3CCOCC3)c(CNC(=O)c3ccnn3C)c(C)nc21"
discrete_label = "fulfilled"


Below: the item to evaluate.
Dear colleague, could you confirm whether CCCCCCCN1CC[C@@H](CCCc2ccnc3ccc(OC)cc23)[C@@H](CCN)C1.O=C(O)C(=O)O has Unified cytotox at or above 7 µM? not fulfilled
